Recorded values, source PubChem BioAssay AID1159580.

Experiment: chemical genetic growth profiling, strain panel (AID 1159580);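 note: tested at 20 µM; growth read once vehicle control cultures reached saturation at 30 °C; 1 = growth at the plate median or of vehicle wells; lower values mean less growth of the strain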
Conditions: S. cerevisiae deletion strains, growth OD, locus YJR066W, strain TOR1, hits give low values
In all, about 5,500 compounds went through this assay and about 2,000 (36%) were called active. Roughly 18% stayed inconclusive and do not appear here. The list shows a part of the results.
test.readout: normalized growth
// no unit string in output, number only

Some entries whose results are on file:
Cc1nn(C)c(C(=O)Sc2ccc(OC(F)(F)F)cc2)c1[N+](=O)[O-]    0.936
N/C(CCSc1ccc(Cl)cc1)=N/OC(=O)Nc1ccc(Cl)cc1    0.114

Could you now consider this next compound?
Data request: Find the measured normalized growth of `Cc1ccc(Nc2ccnc3cc(Cl)ccc23)cc1F` and report it.
Data returned: 0.967
